System: LXRb:RXRa (NR concentration 270 nM, RXRa partner concentration 90 nM)
Experiment: PBM binding z-score (relative to random genomic background probes); higher = stronger binding; sequences stand for … in GC…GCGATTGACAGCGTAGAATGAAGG
Everything with PBM binding z-score lower than 2 is False; everything else, including exactly 2, is True.

Before answering, review these 5 worked examples.
chain: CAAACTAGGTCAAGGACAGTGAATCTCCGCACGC
answer.label: False
//
chain: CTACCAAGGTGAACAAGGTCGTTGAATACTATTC
answer.label: False
//
chain: CCTTCTGGGCCACGAAAGGTCATTGATTCAGTGA
answer.label: True
//
chain: CCTGGTTGGTCAGGAGGTCACACACCGGATATGA
answer.label: True
//
chain: CAAACTAGGTCACGAAAGGTCGAAGTCGAATGAC
answer.label: True

-- ask Exam item: decide whether the reported PBM binding z-score for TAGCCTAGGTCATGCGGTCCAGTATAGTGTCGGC is at least 2.
-- reply False

-- ask Exam item: decide whether the reported PBM binding z-score for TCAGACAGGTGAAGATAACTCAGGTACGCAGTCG is at least 2.
-- reply False

-- ask Exam item: decide whether the reported PBM binding z-score for CGTCCAAGGGCAGAGAGGTCAGTGAATGCCGAGT is at least 2.
-- reply False

-- ask Exam item: decide whether the reported PBM binding z-score for GGAACGAGGGTAAAGTTGATAGCATCTGTCGACG is at least 2.
-- reply False

-- ask Exam item: decide whether the reported PBM binding z-score for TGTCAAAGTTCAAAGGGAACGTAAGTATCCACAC is at least 2.
-- reply True

-- ask Exam item: decide whether the reported PBM binding z-score for ATCGAAAGGTCGAAGGTGAGTATCCCCACCCGAA is at least 2.
-- reply True

-- ask Exam item: decide whether the reported PBM binding z-score for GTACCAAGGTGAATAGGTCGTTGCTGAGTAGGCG is at least 2.
-- reply False

-- ask Exam item: decide whether the reported PBM binding z-score for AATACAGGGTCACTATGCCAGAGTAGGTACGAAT is at least 2.
-- reply True

-- ask Exam item: decide whether the reported PBM binding z-score for CTGACTGGGGCAAAGGTTACCATACTCAGTACGA is at least 2.
-- reply True

-- ask Exam item: decide whether the reported PBM binding z-score for GTACCAAGGTGAATACGTCGTTGATGAGTAGGCG is at least 2.
-- reply False

-- ask Exam item: decide whether the reported PBM binding z-score for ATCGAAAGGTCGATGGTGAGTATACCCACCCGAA is at least 2.
-- reply False

-- ask Exam item: decide whether the reported PBM binding z-score for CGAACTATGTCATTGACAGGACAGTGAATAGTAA is at least 2.
-- reply False

-- ask Exam item: decide whether the reported PBM binding z-score for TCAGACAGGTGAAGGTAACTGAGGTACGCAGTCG is at least 2.
-- reply False

-- ask Exam item: decide whether the reported PBM binding z-score for TCTATTATTTGATTAGGGCAACCGAAACAGCGGA is at least 2.
-- reply False

-- ask Exam item: decide whether the reported PBM binding z-score for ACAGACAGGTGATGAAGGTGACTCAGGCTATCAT is at least 2.
-- reply False

-- ask Exam item: decide whether the reported PBM binding z-score for CCTAGCAGGCCAATCTGGGTCCCTCAAGGCTTGA is at least 2.
-- reply False

-- ask Exam item: decide whether the reported PBM binding z-score for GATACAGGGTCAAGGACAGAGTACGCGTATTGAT is at least 2.
-- reply True

-- ask Exam item: decide whether the reported PBM binding z-score for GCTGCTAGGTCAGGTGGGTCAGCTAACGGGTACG is at least 2.
-- reply False

-- ask Exam item: decide whether the reported PBM binding z-score for ACTATTAGTTGACTTAGGGCAACAGATACGACGC is at least 2.
-- reply False

-- ask Exam item: decide whether the reported PBM binding z-score for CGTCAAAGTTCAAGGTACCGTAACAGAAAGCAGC is at least 2.
-- reply True

-- ask Exam item: decide whether the reported PBM binding z-score for TCTTGTAGATCAGGCAGGTTAAGAAAGCCTGAGT is at least 2.
-- reply False

-- ask Exam item: decide whether the reported PBM binding z-score for TCTCGGAGGACCCGAAAGGTCAGAGCTCGACATC is at least 2.
-- reply True
